Please go through the items and note down their Cell Viability.
# Tested on: B cell
# method.description: Cytotoxicity screening of chemical probes in isolated B cell assay. Data is normalized to DMSO control, the cell viability average of replicates are reported. Reduction of ATP level more than 20% indicate compromised cell health status.
# applied.conditions: human, 1 µM
Kindly answer with a numeric value in %, unit omitted.

For CC1(C)C(N)=Nc2cc(OCCCN3Cc4ccc(OCCc5cn(CC(=O)N6CCC(CCN7CCCC7)CC6)nn5)cc4C3)c(OCC3CC3)cc21 the compound record lists Cell Viability as 92.0303

The value of Cell Viability measured for the compound CCC(=O)Nc1cc(Nc2cc(NC3CC3)n3ncc(C#N)c3n2)ccc1C turned out to be 88.1167

Lookup result for Cl.Clc1ccc2nsnc2c1NC1=NCCN1 [TIZANIDINE HYDROCHLORIDE] ; measured Cell Viability: 103.384

Measured Cell Viability of Cl.Cl.c1ccc([C@@H]2C[C@H]2NC2CCNCC2)cc1 : 93.3816

Form field Cell Viability, entry CNCc1ccccc1-c1csc([C@@H](C)Nc2nc(C)nc3cc(OC)c(OC)cc23)c1 : 78.8725

The values you see were collected from ChEMBL document CHEMBL5724562.
